B1: TMEM192 (parent)
chain: LWILHLLLECYIQYHHSKIRNRGY

Variants of: B1
Assay: protein stability index of a GFP-peptide fusion (GPS, HEK-293T) (PSI 1-6); higher = more stable;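 note: lentivirally expressed fusions sorted by FACS into six bins by GFP to DsRed ratio, PSI derived from sequencing read proportions per bin multiplied by bin number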
Conditions: c terminus: a fixed tail appended
protein stability index reference
API doc: respond with a numeric literal and nothing else, no unit.

Illustrative cases are given below, each with its answer.
QUERY: Hello, please tell me recorded protein stability index for this one: `I12W`
RESULT: 1.79

QUERY: Please give the documented protein stability index of `H15T`
RESULT: 1.25

QUERY: Give protein stability index for `I3A`
RESULT: 1.76

QUERY: State its protein stability index: `Q13K`
RESULT: 2.05

Now consider the entry below.
QUERY: Consider the variant `H15M` . State its measured protein stability index.
RESULT: 2.41
